Data provenance is ChEMBL document CHEMBL1201862.

# Tested on: NCI/ADR-RES
# Assay Notes: NCI tumour cell line growth inhibition, 48 h
The source made the active and inactive calls. Rule as the data show it: active = GI50 up to about 1.1 µM and inactive = higher.
Attribute Measured: GI50

Compound	Tested Target	GI50
Cc1ccc(-c2cn3c(nc4ccccc43)c(C)n2)cc1	NCI/ADR-RES	40.1 µM (inactive)
CCC1=CC(OCc2ccccc2)C(CCN(Cc2ccccc2)C(=O)OCc2ccccc2)C1 (centres undefined)	NCI/ADR-RES	15.9 µM (inactive)

Below are some compounds; for each one, tell me its GI50.
1. CC(C)[Si]1(C(C)C)OCC2OC(n3ccc(=O)[nH]c3=O)C([Se]c3ccccc3)C2O[Si](C(C)C)(C(C)C)O1 (centres undefined)
2. CCOP(=O)(Nc1ccc(-c2ccc(N)cc2)cc1)OCC

Out:
1. 11.2 µM (inactive)
2. > 100 µM (inactive)

====

# Test system: SN12C
# Assay Notes: NCI tumour cell line growth inhibition, 48 h
The source made the active and inactive calls. Cut-off read from the data, not from the text of the source: active = GI50 up to about 1.1 µM and inactive = higher.
One label from this list, please: Y (active), N (inactive)

Compound	Tested Target	Category
C=CC1(c2ccc3ccccc3c2)OCC(CC)O1 (centres undefined)	SN12C	N
O=C1[C@H]2ON(c3ccccc3)C(c3cccc([N+](=O)[O-])c3)[C@H]2C(=O)N1c1ccc(Cc2ccc(N3C(=O)[C@@H]4ON(c5ccccc5)C(c5cccc([N+](=O)[O-])c5)[C@@H]4C3=O)cc2)cc1 (some centres undefined)	SN12C	N
Cc1ccc(NC(=O)NC(=O)c2ccc([N+](=O)[O-])cc2[N+](=O)[O-])cc1Oc1ncc(Cl)cn1	SN12C	Y

Now take the following compound into account.
In: Short answer needed: outcome of this test for Cc1ccc(S(=O)(=O)OC2=C/C(=N\c3onc(C)c3C)c3ccccc3C2=O)cc1 ?
Out: N

====

# Tested on: EKVX
# Assay Notes: NCI tumour cell line growth inhibition, 48 h
Active and inactive are the calls of the source. No stated cut-off is given here; in the data, active = GI50 up to about 1.1 µM and inactive = higher.
Attribute Measured: GI50

Use these answered entries as a reference point.
Compound	Tested Target	GI50
COc1ccc(C=C(c2ccc(OCc3ccccc3)cc2)c2ccc(OCc3ccccc3)cc2)cc1	EKVX	> 100 µM (inactive)
CSCSCC(CO)NC(=O)/C(C)=C\c1c(C)[nH]c(=O)[nH]c1=O (stereo not drawn)	EKVX	> 250 µM (inactive)

Below are some compounds; for each one, tell me its GI50.
1. CC1CC2OC(=O)C(C)C2CC2(C)C(OC3OC(CO)C(O)C(O)C3O)OCCC12 (stereo not drawn)
2. CC(C)(C)c1cc(OCc2nnc3sc(-c4ccc(Cl)cc4)nn23)c(Cl)cc1OCc1nnc2sc(-c3ccc(Cl)cc3)nn12
3. CCCC#CC(O)(C(=O)OC1CCN(C)CC1)C1CCCCC1 (stereo not drawn)
4. CCOC(OCC)C(CC)[Se]c1ccccc1[N+](=O)[O-] (stereo not drawn)

Out:
["> 100 µM (inactive)", "13.1 µM (inactive)", "> 100 µM (inactive)", "5.7 µM (inactive)"]

====

# Tested on: M19-MEL
# Assay Notes: NCI tumour cell line growth inhibition, 48 h
Activity calls are given as the source filed them. No stated cut-off is given here; in the data, active = GI50 up to about 1.1 µM and inactive = higher.
One label from this list, please: active, inactive

Use these answered entries as a reference point.
Compound	Category
N#C/C(=C\c1cc(O)ccc1O)C(N)=O	inactive
COc1ccc(O)c2c1C(=O)CCCC2=O	inactive
CCc1ccc(Cc2ccc(CC)c(NC(=O)C(=O)Cc3nc4ccccc4nc3C)c2CC)c(CC)c1NC(=O)C(=O)Cc1nc2ccccc2nc1C	inactive
CC(C)(C)CC(C)(C)c1cc2c(O)c(c1)Cc1cc(C(C)(C)CC(C)(C)C)cc(c1O)Cc1cc(C(C)(C)CC(C)(C)C)cc(c1O)Cc1cc(C(C)(C)CC(C)(C)C)cc(c1O)Cc1cc(C(C)(C)CC(C)(C)C)cc(c1O)Cc1cc(C(C)(C)CC(C)(C)C)cc(c1O)C2	inactive
CCSC1=C(C)N(/C=N/C(C)(C)C)CC1	inactive
N#CC1(CCCCl)CCCCC1	inactive
CCCCCCCCCCCc1cc(=O)c2c(O)cccc2o1	inactive
COc1ccc(C(O)/C(=N\NC(N)=S)c2nc3ccc([N+](=O)[O-])cc3nc2O)cc1OC (centres undefined)	inactive
CCOC(=O)c1ccc(N2C(=O)/C(=C\OC)c3ccccc3C2=O)cc1	inactive
CCSc1nc(N2CCCC2)s[s+]1.[O-][Cl+3]([O-])([O-])[O-]	inactive

Now take the following compound into account.
In: Short answer needed: outcome of this test for O=C1c2ccccc2C(=O)C1C(c1ccc(F)cc1)C1C(=O)c2ccccc2C1=O ?
Out: inactive
